tested on: RXF 393 renal; experiment: NCI-60 one-dose screen, 48 h (100 = growth as untreated, 0 = no growth, -100 = all killed); settings: 10 µM unless noted
This is part of a sample that, as a whole, favours compounds with a hit. Of some 83,000 tested, about 20% had one in any assay.
Give growth for every item shown.
Answer with a number only, understood to be in %.

Exam item: Given the entry `Cc1cc(C)c2c(n1)sc1c(Nc3ccc(OCc4ccccc4)cc3)ncnc12` , what growth was observed with RXF 393 renal?
Marked response: 104

Exam item: Another: COc1ccc2[nH]cc(C(c3ccc(Cl)cc3)N3CCCC3)c2c1 (stereo unspecified)
Marked response: 82.9

Exam item: Another: `CC1=NOCC(=O)N1`
Marked response: 103

Exam item: Another: `COc1cc2c(cc1OCCCOc1cc3c(cc1OC)C(=O)N1CCC[C@H]1C=N3)C=CC(C)(C)O2`
Marked response: 94.8

Exam item: Another: `COc1cc2nccc(Oc3ccc(NC(=O)C4(C(=O)Nc5ccc(F)cc5)CC4)cc3)c2cc1Oc1ccc(N)cn1`
Marked response: 11.5

Exam item: Another: `Cc1ccc(NC(=O)c2[nH]c(SCCN(C)C)nc2-c2ccc(F)cc2)cc1C#Cc1cnc2cccnn12`
Marked response: -61.6

Exam item: Another: `CC1=C(O)C(=O)C(c2c(C)cc(C)c(Br)c2C)=C(O)C1=O`
Marked response: 28.9

Exam item: Another: `CNC(=O)c1cc(Oc2ccc(NC(=O)c3nc(S(C)(=O)=O)sc3-c3ccc(F)cc3)cc2)ccn1`
Marked response: 104

Exam item: Another: `CCc1ccc(Nc2ncnc3c2cnn3-c2cccc(Br)c2)cc1`
Marked response: 100

Exam item: Another: `NC(N)=N/N=C/c1ccccc1`
Marked response: 101

Exam item: Another: `NC(=O)c1noc(C(=O)c2ccccc2)c1N`
Marked response: 96.2

---

test system: SK-OV-3 ovarian; assay: NCI-60 one-dose screen, 48 h (100 = growth as untreated, 0 = no growth, -100 = all killed); settings: 10 µM unless noted
The panel holds about 83,000 compounds, 20% with a hit somewhere; the sample as a whole holds those more often. Activity calls are given as the source filed them. How the source made its calls: active means growth percent below 10; inactive means the rest.
Reported Property: growth

Exam item: Given the entry COc1ccc(C2CC(c3ccc(Nc4ccnc5cc(Cl)ccc45)cc3)=NN2c2ccccc2)cc1 (configuration not stated) , what growth was observed with SK-OV-3 ovarian?
Marked response: 108% (inactive)

Exam item: Another: `COc1c(B(O)O)cccc1-c1nc2c(F)cc3n[nH]c(C)c3c2c2c1CCCC2`
Marked response: -1.49% (active)

Exam item: Another: `C=CCn1c(SCC(=O)Nc2ccc(C(=O)/C=C/c3ccccc3)cc2)nnc1-c1ccc(OC)c(OC)c1`
Marked response: 93.4% (inactive)

Exam item: Another: `C/C(=C\C(=N\N=C(N)N)c1ccc(Cl)cc1)c1ccc(Cl)cc1`
Marked response: -22.4% (active)

Exam item: Another: `COc1ccc(/C=C/C(=O)c2ccc(NC(=O)CSc3nnc(-c4ccc(OC)cc4)n3-c3ccccc3)cc2)cc1`
Marked response: 100% (inactive)

Exam item: Another: C=C1NC(=O)C(C(C)CC)NC(=O)C2CSCC(NC(=O)CCC(=O)O)C(=O)NC(Cc3ccccc3)C(=O)NC(C)C(=O)NC(CC(C)CC)C(=O)NC(C(=O)NC(Cc3ccccc3)C(=O)N3CCCC3C(=O)N2)C(C)OC(=O)C(CO)NC(=O)C(C(O)COC)N(C)C(=O)C(C(C)C)NC(=O)C(CC(C)CC)NC1=O (configuration not stated)
Marked response: 39% [6 µM] (inactive)

Exam item: Another: `O=C1/C(=C\c2cccn2Cc2ccc(F)cc2)c2ccccc2N1c1c(Cl)cccc1Cl`
Marked response: 96.2% (inactive)
